# EXPERIMENTAL_TARGET: Cytochrome P450 2C9 (Homo sapiens) (UniProt P11712)
# Sequence (P11712 whole entry, looked up): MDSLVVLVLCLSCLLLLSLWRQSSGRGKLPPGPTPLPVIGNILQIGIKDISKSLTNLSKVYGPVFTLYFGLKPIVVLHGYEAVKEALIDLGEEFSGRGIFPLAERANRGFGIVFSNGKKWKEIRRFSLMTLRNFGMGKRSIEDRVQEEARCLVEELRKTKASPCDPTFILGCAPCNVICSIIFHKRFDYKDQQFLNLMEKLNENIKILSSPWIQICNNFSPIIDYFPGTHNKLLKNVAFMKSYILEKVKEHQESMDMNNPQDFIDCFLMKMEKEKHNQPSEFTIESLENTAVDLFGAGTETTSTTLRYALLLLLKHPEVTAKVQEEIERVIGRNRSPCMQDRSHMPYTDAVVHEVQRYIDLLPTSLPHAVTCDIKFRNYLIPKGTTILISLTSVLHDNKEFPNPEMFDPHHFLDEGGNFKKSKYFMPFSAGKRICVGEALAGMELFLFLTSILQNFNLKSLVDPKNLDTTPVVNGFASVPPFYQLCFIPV
# PROTOCOL_SUMMARY: Cytochrome panel assay with activity outcomes; as to activity, negative = inhibition: % is scaled to controls: 0 for no effect and ±100 for the full control effect
# RECORDED_CONDITIONS: recombinant CYP, pro-luciferin dealkylation, luminescence, p450-cyp2c9; series mostly up to 57.1 µM
Screen size: about 16,000 compounds; about 4,000 (25%) were called active. Inconclusive results (about 26%) are left out. These entries were drawn from the full list.
OUTCOME_MEASURE: activity, negative = inhibition

Oc1ccc2c3c1O[C@H]1c4oc5ccccc5c4C[C@]4(O)[C@H](C2)N(CC2CC2)CC[C@@]314    inactive
CC(=O)[C@@H]1CC[C@@H]2[C@@H]3CC=C4C[C@H](OS(=O)(=O)O)CC[C@@]4(C)[C@H]3CC[C@]21C    inactive
C[C@]12N[C@@H](Cc3ccccc31)c1ccccc12    inactive

----------
# EXPERIMENTAL_TARGET: Cytochrome P450 2C9 (Homo sapiens)
# PROTOCOL_SUMMARY: Cytochrome panel assay with activity outcomes; as to activity, negative = inhibition: % is scaled to controls: 0 for no effect and ±100 for the full control effect
# RECORDED_CONDITIONS: recombinant CYP, pro-luciferin dealkylation, luminescence, p450-cyp2c9; series mostly up to 57.1 µM
Screen size: about 16,000 compounds; about 4,000 (25%) were called active. About 26% were inconclusive and are not listed. These entries were drawn from the full list.
OUTCOME_MEASURE: activity, negative = inhibition

Reference set (4 entries):
CC(C)[C@@H]1CN[C@H](C(=O)O)[C@@H]1CC(=O)O    inactive
c1cc(CN2CCC3(CCNCC3)CC2)ccn1    inactive
N=C1c2ccccc2CN1NC(=O)c1ccc(Cl)cc1    inactive
CC1(C)N=C(N)N=C(N)N1c1cccc(C(=O)Nc2ccc(S(=O)(=O)F)cc2)c1    14.9% [at 11.4 µM] (inactive)

Task: Given the compound COc1ccc(NC(=O)NC2CC3CCCC(C2)N3Cc2ccccc2)cc1 (stereo unspecified) , what is its reported activity, negative = inhibition?
Result: inactive

Task: Which activity, negative = inhibition is listed for `S=C=Nc1cccc(C2(N3CCCCC3)CCCCC2)c1` ?
Result: inactive

Task: Look up activity, negative = inhibition for this compound: `CC1=NN(c2ccc(S(=O)(=O)O)cc2C)C(=[OH+])[C@H]1N=Nc1cc(S(=O)(=O)O)ccc1C(=O)O.O.[Cr]`
Result: -5.47% [at 11.4 µM] (inactive)

Task: Fill in the blank: the reported activity, negative = inhibition of `CC(=O)O[C@H]1CC[C@@]2(C)[C@@H](CC[C@H]3[C@H]2CC(=O)[C@@]2(C)[C@@H]3C[C@H]3CC(C)=CC(=O)[C@H]32)C1` is ____.
Result: -10.2% [at 11.4 µM] (inactive)

Task: I am curious: what activity, negative = inhibition value has been reported for `CC(C)CN1CC2(CCN(C(=O)c3ccncc3)CC2)C1` ?
Result: inactive

Task: Quick one: activity, negative = inhibition of `C[C@@]12CCC(=O)C=C1C=C[C@H]1[C@H]3CC[C@](O)(CCC(=O)O)[C@]3(C)CC[C@@H]12` ?
Result: inactive

Task: Form field: reported activity, negative = inhibition of `C=C(C)[C@H]1CN[C@H](C(=O)O)[C@@H]1CC(=O)O`
Result: inactive

----------
# EXPERIMENTAL_TARGET: Cytochrome P450 2C9 (Homo sapiens) (UniProt P11712)
# PROTOCOL_SUMMARY: Cytochrome panel assay with activity outcomes; as to activity, negative = inhibition: % is scaled to controls: 0 for no effect and ±100 for the full control effect
# RECORDED_CONDITIONS: recombinant CYP, pro-luciferin dealkylation, luminescence, p450-cyp2c9; series mostly up to 57.1 µM
About 4,000 (25%) of roughly 16,000 compounds were called active. About 26% were inconclusive and are not listed. Only a sample is shown.
OUTCOME_MEASURE: activity, negative = inhibition

Please review the entries below; each comes with its answer.
COc1ccc2c(c1)[C@]13CCCC[C@@H]1[C@H](C2)N(C)CC3    inactive
O=c1cc(-c2ccc(O)cc2)oc2cc(O)cc(O)c12    inactive
c1cnc(N2CCC3(CCNCC3)CC2)nc1    inactive
O=C1N[C@@]2(CN3CCC2CC3)C(=O)N1CN(Cc1ccccc1)c1ccccc1    -7.38% [at 11.4 µM] (inactive)
CN1CCc2cc3c(cc2[C@@H]1[C@@H]1OC(=O)c2c1ccc1c2OCO1)OCO3    inactive
COc1cc2cc(c1Cl)N(C)C(=O)C[C@H](OC(=O)C(C)C)[C@]1(C)O[C@@H]1[C@@H](C)[C@H]1C[C@](O)(NC(=O)O1)[C@@H](OC)/C=C\C=C(\C)C2    8.76% [at 11.4 µM] (inactive)
CCCN(CCC)C1Cc2cc(OC)c(OC)cc2C1    inactive
N#Cc1ccc(CN2CC[C@@]3(CCCN(C(=O)Oc4ccccc4)C3)C2)cc1    inactive
C=C1C/C(=C\C)C(=O)O[C@@H]2CCN3CC=C(COC(=O)[C@@]1(C)O)[C@H]23    inactive
Cn1c(O)c(C(c2ccccn2)c2c(O)n(C)c(=S)[nH]c2=O)c(=O)[nH]c1=S    inactive

Task: Look at this compound and give its reported activity, negative = inhibition. `NCCCC[C@H](N[C@@H](CCc1ccccc1)C(=O)O)C(=O)N1CCC[C@H]1C(=O)O`
Result: inactive

Task: Requested field: activity, negative = inhibition. Item: `NCCc1ccc(S(=O)(=O)O)cc1[N+](=O)[O-]`
Result: 8.12% [at 11.4 µM] (inactive)

----------
# EXPERIMENTAL_TARGET: Cytochrome P450 2C9 (Homo sapiens)
# PROTOCOL_SUMMARY: Cytochrome panel assay with activity outcomes
# RECORDED_CONDITIONS: recombinant CYP, pro-luciferin dealkylation, luminescence, p450-cyp2c9; series mostly up to 57.1 µM
Out of some 16,000 compounds screened, about 4,000 (25%) were called active. Roughly 26% stayed inconclusive and do not appear here. A selection follows.
OUTCOME_MEASURE: AC50

O=c1c2ccccc2nc(N2CCCC2)n1-c1ccc(Cl)cc1    14.1 µM (active)
N#CC(C#N)=Cc1ccc(O)c(O)c1    7.94 µM (active)
CC(C)c1ccc(C(c2c(O)c3ccccc3oc2=O)c2c(O)c3ccccc3oc2=O)cc1    3.16 µM (active)
CC(C)(C)c1cc(C=C(C#N)C#N)cc(C(C)(C)C)c1O    0.0316 µM (active)
CC(C)c1c(CN(C)[C@@H](C)Cc2ccccc2)n(C)n(-c2ccccc2)c1=O    7.94 µM (active)

Task: # lookup: AC50 of `O=C(C[C@H](c1ccccc1)c1c(O)c2ccccc2oc1=O)c1ccccc1`
Result: 0.631 µM (active)

Task: Which value of AC50 has been reported for `CC1(C)CCC2=C(O1)c1ccccc1C(=O)C2=O` in the records?
Result: 31.6 µM (active)

Task: Requested read-out: AC50. Entry: `COc1cc(C=C(C#N)C#N)cc(O)c1O`
Result: 2.51 µM (active)

----------
# EXPERIMENTAL_TARGET: Cytochrome P450 2C9 (Homo sapiens) (UniProt P11712)
# PROTOCOL_SUMMARY: Cytochrome panel assay with activity outcomes; as to activity, negative = inhibition: % is scaled to controls: 0 for no effect and ±100 for the full control effect
# RECORDED_CONDITIONS: recombinant CYP, pro-luciferin dealkylation, luminescence, p450-cyp2c9; series mostly up to 57.1 µM
The whole screen tested about 16,000 compounds, of which about 4,000 (25%) were called active. Roughly 26% stayed inconclusive and do not appear here. Not all results are given here.
OUTCOME_MEASURE: activity, negative = inhibition

Known results for compounds:
OC(c1ccccc1)(c1ccccc1)C1CCNCC1    inactive
CC(=O)O[C@@H]1CN2CCC1CC2    inactive
O=C(c1cc2cc3ccc(Cl)cc3nc2o1)N1CCC2(CC1)OCCO2    inactive
CNCCc1c[nH]c2ccc(O)cc12    inactive
COc1ccc2[nH]cc(C3=CCNCC3)c2c1    inactive
CC[C@]1([C@H]2O[C@@H]([C@@H]3O[C@](O)(CO)[C@@H](C)C[C@H]3C)C[C@H]2C)CC[C@@H]([C@]2(C)CC[C@@]3(C[C@@H](O)[C@@H](C)[C@@H]([C@H](C)[C@H](OC)[C@H](C)C(=O)O)O3)O2)O1    inactive
COc1c2c(cc3c1OCO3)CCN(C)C2    inactive
CC[C@]1(C2=NCCN2)Cc2ccccc2O1    inactive
O=c1[nH]cnc2[nH]cc(CN3CCCCC3)c12    -6.24% [at 11.4 µM] (inactive)
COc1ccc(C[C@@H](N)c2ccc(OC)cc2)cc1    -15.8% [at 11.4 µM] (inactive)

Task: Any idea what activity, negative = inhibition was measured for `N=C(N)c1ccc(-c2ccc(-c3ccc(C(=N)N)cc3)o2)cc1` ?
Result: 19.5% [at 11.4 µM] (inactive)

Task: I have this compound here, `C=C[C@H]1CN2CC[C@@H]1C[C@H]2[C@@H](O)c1ccnc2ccccc12` , and I need its recorded activity, negative = inhibition.
Result: inactive

Task: Which activity, negative = inhibition reading was recorded for the compound `CC(C)NC(=O)N1CCC2(CC1)CCN(C(=O)Oc1ccccc1)CC2` ?
Result: inactive

Task: // lookup activity, negative = inhibition for `NC(N)=NN=Cc1c(Cl)cccc1Cl`
Result: inactive

Task: Which activity, negative = inhibition value is on record for `C[C@@H](Cc1cccc(C(F)(F)F)c1)NCCCc1ccccc1` ?
Result: inactive

Task: Reported activity, negative = inhibition for `CN(CCc1ccc(Cl)c(Cl)c1)[C@H]1CCCC[C@H]1N1CCCC1` : what is it?
Result: inactive
